Test system: HEK-293 (human embryonic kidney cells)
Assay: MTT cell proliferation assay, HEK-293
Assay type: cell-based
Details: HEK293, 48 h treatment
Measure name: IC50

Some entries whose results are on file:
Compound | IC50
COc1ccc(CCCc2cccc(NC(=O)Nc3ccc(OC)cc3)c2)cc1 [C.12] | > 100 µM
COc1ccc(CCCc2cccc(NC(=O)Nc3ccccc3OC)c2)cc1 [C.14] | > 100 µM

query: Identify measured IC50 corresponding to COc1ccc(CCCc2cccc(NC(=O)Nc3ccc(F)cc3)c2)cc1 [C.3]
result: > 100 µM
